Test system: Trypanosoma cruzi
protocol-description: Trypanosoma cruzi phosphomannomutase and mannose-1-phosphate guanylyltransferase assay
Format: functional
Design: scale not given: direction of the effect not stated beside the values
measurement-parameters: 10 µM
Quick reference: Percent Effect of the listed items.
property: Percent Effect (%)

>>> readout_number("Cc1cc(C)n(CC(=O)N2CCC(NS(=O)(=O)c3ccccc3)CC2)n1")
-1.32
>>> readout_number("CCS(=O)(=O)N1CCC(c2nnc(Cn3cccn3)n2C2CC2)CC1")
2.23
>>> readout_number("COc1cccc2c1OCC(CNC(=O)CCCN1CCOCC1)C2 (configuration not stated)")
2.05
>>> readout_number("CCOC(=O)C1CCN(Cc2csc(C(C)(C)C)n2)CC1")
-3.12
>>> readout_number("COc1cccc(CCNC(=O)CN2CCN(C)CC2C)c1 (configuration not stated)")
-4.92
>>> readout_number("Cc1ccc(NC2CCN(C(=O)CCc3ccco3)CC2)nn1")
0.836
>>> readout_number("CCn1cnnc1C1CCN(C(=O)c2cnc(C3CC3)s2)CC1")
0.85
>>> readout_number("COCCN1CC[C@H](O)[C@@H]1Cc1ccccc1")
0.786
>>> readout_number("CSCC[C@H](N)C(=O)NCc1cc2n(n1)CCCN(C(=O)C1CCC1)C2")
8.26
>>> readout_number("CCN1CCC(CNC(=O)C2(c3cccc(C)c3)CC2)C1 (configuration not stated)")
-7.69
>>> readout_number("O=C(c1ccc2c(c1)COC2)N1CCN(CC2CC2)CC1")
-0.283
>>> readout_number("Cc1ccc(C(C)N(C)Cc2nc3c(cnn3C)c(=O)[nH]2)cc1 (configuration not stated)")
1.21

Provenance of the data: ChEMBL document CHEMBL3988442
